Listed below: pEC50 values for each entry.
measurement.target: T1, ROR1 naturally expressed on human tumor cell lines (A549, Jeko-1, SW620, PA-1) (human, UniProt Q01973 30-937)
T1 construct: whole, on cells; also called cells expressing ROR1
T1 sequence (Q01973 30-937): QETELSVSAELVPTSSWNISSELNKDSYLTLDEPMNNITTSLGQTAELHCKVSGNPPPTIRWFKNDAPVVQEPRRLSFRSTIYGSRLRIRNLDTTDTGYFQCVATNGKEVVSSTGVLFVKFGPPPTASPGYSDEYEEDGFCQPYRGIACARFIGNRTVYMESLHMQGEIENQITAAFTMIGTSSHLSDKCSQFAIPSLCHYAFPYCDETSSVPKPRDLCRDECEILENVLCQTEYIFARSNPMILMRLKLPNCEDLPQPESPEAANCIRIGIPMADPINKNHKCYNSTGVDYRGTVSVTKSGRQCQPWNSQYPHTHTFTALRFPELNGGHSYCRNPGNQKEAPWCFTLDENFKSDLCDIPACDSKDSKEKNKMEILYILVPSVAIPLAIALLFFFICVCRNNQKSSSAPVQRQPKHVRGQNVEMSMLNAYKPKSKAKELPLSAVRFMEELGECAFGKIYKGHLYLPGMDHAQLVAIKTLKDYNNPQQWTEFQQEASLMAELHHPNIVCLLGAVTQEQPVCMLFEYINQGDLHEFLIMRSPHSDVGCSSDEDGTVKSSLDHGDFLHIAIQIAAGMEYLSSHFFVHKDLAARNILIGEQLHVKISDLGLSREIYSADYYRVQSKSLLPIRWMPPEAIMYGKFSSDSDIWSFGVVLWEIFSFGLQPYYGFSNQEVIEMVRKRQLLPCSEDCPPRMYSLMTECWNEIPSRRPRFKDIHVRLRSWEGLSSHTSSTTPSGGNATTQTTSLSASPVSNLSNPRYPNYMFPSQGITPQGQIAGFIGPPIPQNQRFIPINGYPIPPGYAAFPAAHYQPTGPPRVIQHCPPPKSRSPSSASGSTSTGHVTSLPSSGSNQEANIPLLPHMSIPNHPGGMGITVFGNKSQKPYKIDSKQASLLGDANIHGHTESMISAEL
test.method.notes: FACS on PA-1 cells naturally expressing ROR1
The quantity pEC50 is defined as the negative base-10 logarithm of the molar concentration.

binder | data.value
hz137G11D10-3.1 (antibody, human IgG1, kappa, V domains shown, Humanized, human IgG1/kappa) VH: QVQLQESGPGLVKPSQTLSLTCTVSGYSITSDYAWNWIRQHPGKGLEWIGYITYSASTSYNPSLKSRVTISRDTSKNQFSLKLSSVTAADTAVYYCARGAGTYYFDYWGQGTLVTVSS VL: DIQMTQSPSSLSASVGDRVTITCITSTDIDEDMNWYQQKPGKAPKLLISEDNSLRPGVPSRFSSSGYGTDFTLTISSLQPEDFATYYCLQTNNLPLTFGQGTKVEIKR | 10.20

**Q:** Query pEC50 for hz137G11D10-2.2 (antibody, human IgG1, kappa, V domains shown, Humanized, human IgG1/kappa) VH: QVQLQESGPGLVKPSQTLSLTCTVSGYSITSDYAWNWIRQHPGKGLEWIGYITYSASTSYNPSLKSRVTISRDTSKNQFFLKLSSVTAADTAVYYCARGAGTYYFDYWGQGTLVTVSS VL: DIQMTQSPSSLSASVGDRVTITCITSTDIDEDMNWYQQKPGKAPKLLIYEDNSLRPGVPSRFSGSGYGTDFTLTISSLQPEDFATYYCLQTNNLPLTFGQGTKVEIKR
**A:** 10.21

**Q:** Query pEC50 for hz137G11D10-1.1 (antibody, human IgG1, kappa, V domains shown, Humanized, human IgG1/kappa) VH: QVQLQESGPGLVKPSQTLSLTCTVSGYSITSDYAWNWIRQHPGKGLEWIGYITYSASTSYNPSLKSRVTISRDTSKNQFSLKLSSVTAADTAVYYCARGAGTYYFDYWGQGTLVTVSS VL: ETTLTQSPAFMSATPGDKVNISCITSTDIDEDMNWYQQKPGEAAKLIISEDNSLRPGIPPRFSSSGYGTDFTLTINNIESEDAAYYFCLQTNNLPLTFGQGTKVEIKR
**A:** 10.12
